# Assay Target: Transient receptor potential cation channel subfamily V member 1 (Rattus norvegicus, UniProt O35433)
# Sequence (O35433 whole entry): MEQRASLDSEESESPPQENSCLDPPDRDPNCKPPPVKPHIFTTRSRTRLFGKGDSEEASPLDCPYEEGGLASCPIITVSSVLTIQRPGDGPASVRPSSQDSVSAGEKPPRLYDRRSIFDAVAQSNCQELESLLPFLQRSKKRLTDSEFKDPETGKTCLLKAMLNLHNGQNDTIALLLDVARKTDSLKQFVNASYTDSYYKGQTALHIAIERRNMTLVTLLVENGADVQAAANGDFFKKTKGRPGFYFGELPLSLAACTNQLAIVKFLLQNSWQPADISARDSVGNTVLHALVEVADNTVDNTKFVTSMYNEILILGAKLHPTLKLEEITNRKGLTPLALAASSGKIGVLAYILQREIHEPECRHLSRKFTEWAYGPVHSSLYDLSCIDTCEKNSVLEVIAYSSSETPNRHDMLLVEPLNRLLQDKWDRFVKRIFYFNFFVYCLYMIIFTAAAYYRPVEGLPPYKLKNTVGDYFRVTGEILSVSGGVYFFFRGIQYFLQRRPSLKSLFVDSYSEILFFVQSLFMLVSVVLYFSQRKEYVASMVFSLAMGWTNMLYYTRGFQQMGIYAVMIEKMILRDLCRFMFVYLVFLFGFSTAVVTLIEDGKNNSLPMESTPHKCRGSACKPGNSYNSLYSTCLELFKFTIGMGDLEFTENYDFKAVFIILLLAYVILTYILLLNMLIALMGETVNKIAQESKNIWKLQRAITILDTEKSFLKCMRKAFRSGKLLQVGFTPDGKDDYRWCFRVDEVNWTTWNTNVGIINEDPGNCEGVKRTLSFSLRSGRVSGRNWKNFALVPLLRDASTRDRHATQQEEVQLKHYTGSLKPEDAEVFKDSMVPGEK
# Experiment Description: Vanilloid receptor subtype 1 antagonist activity based on its ability to block low pH-induced activation of the rat VR1 channel in a HEK293 cell line
# Assay type: functional
Property: IC50 (nM)

# Compound, Unit Label, Measurement
data = [
    ("CC(C)c1ccc(NC(=O)N2CCN(c3ncccc3I)CC2)cc1", "nM", 77.4),
]

1. CC(C)(C)c1ccc(NC(=S)N2CCN(c3ncccc3C(F)(F)F)CC2)cc1
2. CCC(C)c1ccc(NC(=O)N2CCN(c3ncccc3Cl)CC2)cc1 (configuration not stated)
For the pair 1 and 2 , which entry has the numerically smaller recorded IC50? Mark your answer with the label of the selected entry.
2
(2: 23.3 nM, 1: 441 nM)

P. CC(C)c1ccc(NC(=O)N2CCN(c3ncccc3C=O)CC2)cc1
Q. CC(C)(C)c1ccc(NC(=O)N2CCN(c3ncccc3C(F)(F)F)CC2)cc1
For the pair P and Q , which entry has the numerically smaller recorded IC50? Mark your answer with the label of the selected entry.
Q

A. O=C(Nc1ccc(I)cc1)N1CCN(c2ncccc2Cl)CC1
B. Cc1cccnc1N1CCN(C(=O)Nc2ccc(C(C)C)cc2)CC1
C. CCCc1ccc(NC(=O)N2CCN(c3ncccc3Cl)CC2)cc1
List these items ordered by IC50, big to small. Rank the items, then write their labels in that order.
A, B, C

A. O=C(Nc1ccc2ccccc2c1)N1CCN(c2ncccc2Cl)CC1
B. O=C(Nc1ccc(Br)cc1)N1CCN(c2ncccc2Cl)CC1
For the pair A and B , which entry has the numerically smaller recorded IC50? Mark your answer with the label of the selected entry.
A
(A: 278 nM, B: 1010 nM)

* * *

# Experiment Description: Oral bioavailability in rat by po administration at a dose of 40 mg/kg
# Format: ADME, organism-based
# Conditions: in vivo
Property: bioavailability (%)
# unit: % | format: bare number

Query: bioavailability; subject: CC(C)(C)c1ccc(NC(=O)N2CCN(c3ncccc3Cl)CC2)cc1
15.1

* * *

# Assay Target: Transient receptor potential cation channel subfamily V member 1 (Rattus norvegicus)
# Experiment Description: Vanilloid receptor subtype 1 antagonist activity based on its ability to block low pH-induced activation of the rat VR1 channel in a HEK293 cell line
# Assay type: functional
pIC50: −log10 of the molar value.
Property: pIC50

P. CC(C)(C)[C@H]1CC[C@H](NC(=O)N2CCN(c3ncccc3Cl)CC2)CC1
Q. CCc1ccc(NC(=O)N2CCN(c3ncccc3C(F)(F)F)CC2)cc1
R. O=C(Nc1ccc(OC(F)(F)F)cc1)N1CCN(c2ncccc2Cl)CC1
S. CC(C)c1ccc(NC(=O)N2CCN(c3ncccc3C(F)F)CC2)cc1
Give the descending pIC50 ranking for the 4 molecules listed above. Rank the items, then write their labels in that order.
P, S, Q, R

* * *

# Assay Target: Transient receptor potential cation channel subfamily V member 1 (Rattus norvegicus, UniProt O35433)
# Experiment Description: Vanilloid receptor subtype 1 antagonist activity based on its ability to block capsaicin-induced (CAP) activation of the rat VR1 channel in a HEK293 cell line
# Assay type: functional
Property: IC50 (nM)

# Given Smiles, Measurement
records = [
    ("CCCCc1ccc(NC(=O)N2CCN(c3ncccc3Cl)CC2)cc1", 117),
    ("CC(C)c1ccc(NC(=O)N2CCN(c3ncccc3C#N)CC2)cc1", 287),
    ("O=C(Nc1ccc(C(F)(F)F)cc1)N1CCN(c2ncccc2Cl)CC1", 63.5),
    ("Cc1cccnc1N1CCN(C(=O)Nc2ccc(C(C)C)cc2)CC1", 25.3),
    ("CCCc1ccc(NC(=O)N2CCN(c3ncccc3Cl)CC2)cc1", 41.6),
]

a. CC(C)c1ccc(NC(=O)N2CCN(c3ncccc3Cl)CC2)cc1
b. O=C(Nc1ccc(C2CCCCC2)cc1)N1CCN(c2ncccc2Cl)CC1
c. O=C(Nc1ccc(Cl)cc1)N1CCN(c2ncccc2Cl)CC1
d. CC(C)c1ccc(NC(=O)N2CCN(c3ncccc3I)CC2)cc1
e. CCCCc1ccc(NC(=O)N2CCN(c3ncccc3C(F)(F)F)CC2)cc1
// ascending sort on recorded IC50 Rank the items, then write their labels in that order.
a, b, d, c, e

* * *

# Assay Target: Transient receptor potential cation channel subfamily V member 1 (Rattus norvegicus)
# Experiment Description: Vanilloid receptor subtype 1 antagonist activity based on its ability to block capsaicin-induced (CAP) activation of the rat VR1 channel in a HEK293 cell line
# Type: functional
pIC50: −log10 of the molar value.
Property: pIC50

# Molecule, Assay Target, pIC50
records = [
    ("CC(C)c1ccc(NC(=O)N2CCN(c3ncccc3Br)CC2)cc1", "Transient receptor potential cation channel subfamily V member 1 (Rattus norvegicus)", 8.34),
    ("Oc1cc2c(cc1O)CN(C(=S)NCCc1ccc(Cl)cc1)CCC2 [CAPSAZEPINE]", "Transient receptor potential cation channel subfamily V member 1 (Rattus norvegicus)", 7.24),
    ("CC(C)c1ccc(NC(=S)N2CCN(c3ncccc3C(F)(F)F)CC2)cc1", "Transient receptor potential cation channel subfamily V member 1 (Rattus norvegicus)", 6.06),
]

A. CC(C)(C)[C@H]1CC[C@H](NC(=O)N2CCN(c3ncccc3Cl)CC2)CC1
B. O=C(Nc1ccc(I)cc1)N1CCN(c2ncccc2Cl)CC1
For the pair A and B , which entry has the numerically smaller recorded pIC50? Mark your answer with the label of the selected entry.
B

* * *

# Assay Target: Transient receptor potential cation channel subfamily V member 1 (Rattus norvegicus)
# Experiment Description: Vanilloid receptor subtype 1 antagonist activity based on its ability to block low pH-induced activation of the rat VR1 channel in a HEK293 cell line
# Assay type: functional
pIC50: −log10 of the molar value.
Property: pIC50

Recorded results for 3 molecules are shown here.
# Given Smiles, pIC50
records = [
    ("O=C(Nc1ccc(C(F)(F)F)cc1)N1CCN(c2ncccc2Cl)CC1", 7.09),
    ("CCc1cccnc1N1CCN(C(=O)Nc2ccc(C(C)C)cc2)CC1", 6.08),
    ("CC(C)c1ccc(NC(=S)N2CCN(c3ncccc3C(F)(F)F)CC2)cc1", 6.24),
]

A. CCCCc1ccc(NC(=O)N2CCN(c3ncccc3C(F)(F)F)CC2)cc1
B. CCCCc1ccc(NC(=O)N2CCN(c3ncccc3Cl)CC2)cc1
Which entry has a larger number for pIC50, A or B ? Mark your answer with the label of the selected entry.
B

* * *

# Assay Target: Transient receptor potential cation channel subfamily V member 1 (Rattus norvegicus, UniProt O35433)
# Experiment Description: Vanilloid receptor subtype 1 antagonist activity based on its ability to block low pH-induced activation of the rat VR1 channel in a HEK293 cell line
# Type: functional
Property: IC50 (nM)

# Given Smiles, IC50 [nM]
records = [
    ("O=C(Nc1ccc(Oc2ccccc2)cc1)N1CCN(c2ncccc2C(F)(F)F)CC1", 916),
]

I. CCc1ccc(NC(=O)N2CCN(c3ncccc3Cl)CC2)cc1
II. CC(C)c1ccc(NC(=O)N2CCN(c3ncccc3[N+](=O)[O-])CC2)cc1
III. CC(C)c1ccc(NC(=O)N2CCN(c3ncccc3Br)CC2)cc1
IV. O=C(Nc1ccc(C2CCCCC2)cc1)N1CCN(c2ncccc2Cl)CC1
List these items ordered by IC50, big to small. Rank the items, then write their labels in that order.
II, IV, I, III
